List of log10 IC50 values.
# assay target: UniProt:Q8NET8
# Sequence (Q8NET8 whole entry): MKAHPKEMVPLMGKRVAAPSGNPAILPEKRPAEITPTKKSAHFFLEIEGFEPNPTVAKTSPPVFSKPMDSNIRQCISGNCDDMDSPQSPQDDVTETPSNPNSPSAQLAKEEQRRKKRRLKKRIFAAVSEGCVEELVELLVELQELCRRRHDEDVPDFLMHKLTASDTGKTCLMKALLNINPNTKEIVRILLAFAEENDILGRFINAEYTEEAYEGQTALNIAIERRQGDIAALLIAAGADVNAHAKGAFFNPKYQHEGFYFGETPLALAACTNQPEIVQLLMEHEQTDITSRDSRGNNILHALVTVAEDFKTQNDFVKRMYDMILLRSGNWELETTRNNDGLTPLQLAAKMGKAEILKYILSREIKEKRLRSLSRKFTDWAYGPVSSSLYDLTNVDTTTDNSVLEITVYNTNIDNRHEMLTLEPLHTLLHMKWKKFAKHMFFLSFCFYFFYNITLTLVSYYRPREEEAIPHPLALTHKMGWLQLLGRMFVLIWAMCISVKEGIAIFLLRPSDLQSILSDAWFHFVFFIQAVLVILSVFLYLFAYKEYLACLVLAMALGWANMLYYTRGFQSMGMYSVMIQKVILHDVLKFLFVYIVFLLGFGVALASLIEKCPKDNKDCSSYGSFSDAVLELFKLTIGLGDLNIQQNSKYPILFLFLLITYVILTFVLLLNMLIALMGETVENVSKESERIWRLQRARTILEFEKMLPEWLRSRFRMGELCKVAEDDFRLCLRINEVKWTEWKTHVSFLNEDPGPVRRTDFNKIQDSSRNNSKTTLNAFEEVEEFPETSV
# method description: Whole-cell patch clamp, hTRPV3 Phase 1 / Phase 2 currents
# Type: cell-based
# run conditions: Phase 1 current, human TRPV3; read-out: hTRPV3 (nM) Phase 1
Values below are the log10 of the recorded IC50, with nM as the unit.

log10 IC50 of CC(C)c1ccccc1Oc1ccc(C2CCN(C(=O)c3ccc(Cl)cn3)C2)c(CO)c1 (centres unmarked) [Compound 2-17] on UniProt:Q8NET8?
1.76

log10 IC50 of O=C(c1ccc(Cl)cn1)N1CCC(c2ccc(-c3ccccc3)nc2CO)C1 (centres unmarked) [Compound 2-82] on UniProt:Q8NET8?
2.92

These data points were gathered from patent US12435061B2.
